Molecular target: UniProt Q9NZQ7
Sequence (Q9NZQ7 whole entry): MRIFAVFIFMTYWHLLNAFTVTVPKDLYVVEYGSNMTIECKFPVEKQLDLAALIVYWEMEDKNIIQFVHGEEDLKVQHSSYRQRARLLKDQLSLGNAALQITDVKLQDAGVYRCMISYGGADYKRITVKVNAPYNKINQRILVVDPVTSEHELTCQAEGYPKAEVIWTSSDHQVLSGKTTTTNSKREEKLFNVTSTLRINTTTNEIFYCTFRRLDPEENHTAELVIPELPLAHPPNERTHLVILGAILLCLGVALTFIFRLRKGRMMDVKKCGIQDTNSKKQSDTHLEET
Experiment: Enzyme-Linked Immunosorbent Assay ELISA
Recorded IC50 values for a group of molecules are listed next.

Examples with answers:
molecule: Cc1c(OCCCN2CCC2(C)C)cccc1-c1cccc2c1CC[C@@H]2Oc1cc(OCc2cc(C#N)cc(C#N)c2)c(CN[C@H]2CCC(=O)NC2)cc1Cl [US11708326, Compound TABLE 1.323]
IC50: < 5 nM
//
molecule: Cc1c(OCCCN2CCCC[C@@H]2C)cccc1-c1cccc2c1CC[C@@H]2Oc1cc(OCc2cc(C#N)cc(C#N)c2)c(CN[C@H]2CCC(=O)NC2)cc1Cl [US11708326, Compound TABLE 1.315]
IC50: < 5 nM

Exercise: I am curious: what IC50 value has been reported for N#Cc1cncc(COc2cc(O[C@H]3CCc4c(-c5cccc(OCCCN6CC(F)C6)c5Cl)cccc43)c(Cl)cc2CN[C@@H]2CCCC[C@@H]2O)c1 [US11708326, Compound TABLE 1.92] ?
Solution: < 5 nM

Exercise: I am curious: what IC50 value has been reported for N#Cc1cncc(COc2cc(O[C@H]3CCc4c(-c5cccc(OCCCN6CC(O)C6)c5Cl)cccc43)c(Cl)cc2CN2CCCC3(C2)NC(=O)NC3=O)c1 (stereo not given in full) [US11708326, Compound TABLE 1.137] ?
Solution: < 5 nM

Exercise: I am curious: what IC50 value has been reported for CC(CO)(NCc1cc(Cl)c(O[C@H]2CCc3c(-c4cccc(OCCCN5CCCCC5)c4Cl)cccc32)cc1OCc1cncc(C#N)c1)C(=O)O (stereo not given in full) [US11708326, Compound TABLE 1.130] ?
Solution: < 5 nM

Exercise: I am curious: what IC50 value has been reported for Cc1c(OCCCN2CC[C@H](O)[C@H](F)C2)cccc1-c1cccc2c1CC[C@@H]2Oc1cc(OCc2cncc(C#N)c2)c(CN[C@H](C(=O)O)[C@@H](C)O)cc1Cl [US11708326, Compound TABLE 1.34] ?
Solution: < 5 nM

Exercise: I am curious: what IC50 value has been reported for Cc1c(OCCCN2[C@@H](C)CC[C@@H]2C)cccc1-c1cccc2c1CC[C@@H]2Oc1cc(OCc2cc(C#N)cc(C#N)c2)c(CN[C@H]2CCC(=O)NC2)cc1Cl [US11708326, Compound TABLE 1.335] ?
Solution: < 5 nM

Exercise: I am curious: what IC50 value has been reported for Cc1c(OCCCN2[C@H](C)CC[C@@H]2C)cccc1-c1cccc2c1CC[C@@H]2Oc1cc(OCc2cc(C#N)cc(C#N)c2)c(CN[C@H]2CCC(=O)NC2)cc1Cl [US11708326, Compound TABLE 1.333] ?
Solution: < 5 nM

Exercise: I am curious: what IC50 value has been reported for Cc1c(OCCCN2[C@H](C)CC[C@H]2C)cccc1-c1cccc2c1CC[C@@H]2Oc1cc(OCc2cc(C#N)cc(C#N)c2)c(CN[C@H]2CCC(=O)NC2)cc1Cl [US11708326, Compound TABLE 1.334] ?
Solution: < 5 nM

Exercise: I am curious: what IC50 value has been reported for N#Cc1cncc(COc2cc(O[C@H]3CCc4c(-c5cccc(OCCCN6CC7(CC(O)C7)C6)c5Cl)cccc43)c(Cl)cc2CNC[C@H]2CCC(=O)N2)c1 [US11708326, Compound TABLE 1.165] ?
Solution: < 5 nM

Exercise: I am curious: what IC50 value has been reported for N#Cc1cncc(COc2cc(O[C@H]3CCc4c(-c5cccc(OCCCN6CC7(CC(O)C7)C6)c5Cl)cccc43)c(Cl)cc2CNC[C@@H]2CCC(=O)N2)c1 [US11708326, Compound TABLE 1.164] ?
Solution: < 5 nM

Exercise: I am curious: what IC50 value has been reported for Cc1c(OCCCN2C(C)CCC2C)cccc1-c1cccc2c1CC[C@@H]2Oc1cc(OCc2cc(C#N)cc(C#N)c2)c(CN[C@H]2CCC(=O)NC2)cc1Cl (stereo not given in full) [US11708326, Compound TABLE 1.304] ?
Solution: < 5 nM
